TARGET OR TEST SYSTEM: Adrenergic receptor alpha-1 (Rattus norvegicus, UniProt P15823+P23944+P43140)
Sequence (P15823 whole entry): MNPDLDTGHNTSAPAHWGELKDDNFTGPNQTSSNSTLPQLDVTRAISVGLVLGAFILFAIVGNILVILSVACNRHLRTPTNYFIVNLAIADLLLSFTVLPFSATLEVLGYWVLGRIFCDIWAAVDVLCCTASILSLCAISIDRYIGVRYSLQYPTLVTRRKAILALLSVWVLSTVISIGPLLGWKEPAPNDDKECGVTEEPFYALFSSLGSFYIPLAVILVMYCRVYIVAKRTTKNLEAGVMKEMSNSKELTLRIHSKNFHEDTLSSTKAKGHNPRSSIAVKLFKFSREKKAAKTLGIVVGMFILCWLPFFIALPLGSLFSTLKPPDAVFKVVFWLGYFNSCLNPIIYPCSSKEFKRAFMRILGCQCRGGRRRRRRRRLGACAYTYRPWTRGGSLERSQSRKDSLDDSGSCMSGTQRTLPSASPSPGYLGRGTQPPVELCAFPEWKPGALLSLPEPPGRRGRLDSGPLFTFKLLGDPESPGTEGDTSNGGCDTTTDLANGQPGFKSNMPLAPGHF
Sequence (P23944 whole entry): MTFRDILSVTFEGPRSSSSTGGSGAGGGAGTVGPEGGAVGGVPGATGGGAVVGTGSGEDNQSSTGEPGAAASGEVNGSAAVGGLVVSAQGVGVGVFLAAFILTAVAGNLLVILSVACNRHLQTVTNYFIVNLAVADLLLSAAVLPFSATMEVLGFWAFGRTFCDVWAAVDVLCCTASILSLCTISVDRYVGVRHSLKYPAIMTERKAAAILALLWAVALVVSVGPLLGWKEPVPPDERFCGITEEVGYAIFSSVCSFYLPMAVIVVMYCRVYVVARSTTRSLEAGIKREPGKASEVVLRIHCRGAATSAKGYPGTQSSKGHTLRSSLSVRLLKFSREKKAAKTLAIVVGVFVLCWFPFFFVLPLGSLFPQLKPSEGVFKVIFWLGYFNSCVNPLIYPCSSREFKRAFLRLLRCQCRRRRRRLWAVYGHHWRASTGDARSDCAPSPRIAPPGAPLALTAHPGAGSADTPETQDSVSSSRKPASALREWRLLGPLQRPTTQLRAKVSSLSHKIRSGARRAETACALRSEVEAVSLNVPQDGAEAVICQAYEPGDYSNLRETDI
Sequence (P43140 whole entry): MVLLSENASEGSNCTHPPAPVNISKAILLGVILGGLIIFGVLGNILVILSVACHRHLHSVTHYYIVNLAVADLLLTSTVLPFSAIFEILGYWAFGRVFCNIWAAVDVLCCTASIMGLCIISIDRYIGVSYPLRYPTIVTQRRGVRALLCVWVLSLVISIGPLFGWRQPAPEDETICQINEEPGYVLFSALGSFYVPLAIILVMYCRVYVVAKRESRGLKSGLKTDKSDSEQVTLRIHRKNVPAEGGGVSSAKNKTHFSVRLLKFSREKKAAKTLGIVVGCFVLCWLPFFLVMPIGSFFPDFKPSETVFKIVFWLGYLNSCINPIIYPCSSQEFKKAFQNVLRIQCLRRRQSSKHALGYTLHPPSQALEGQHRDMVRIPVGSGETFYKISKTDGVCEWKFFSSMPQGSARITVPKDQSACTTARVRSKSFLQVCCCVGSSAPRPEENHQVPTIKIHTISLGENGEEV
EXPERIMENT DESCRIPTION: Binding affinity determined to alpha-1 adrenergic receptor of rat cerebral cortex using [3H]prazosin as radioligand
Type: tissue-based
ATTRIBUTE MEASURED: Log Ki
Write no unit; give the number alone.

Adrenergic receptor alpha-1 (Rattus norvegicus, UniProt P15823+P23944+P43140) assay, compound CC1c2cccc(Cl)c2CCN1CC1=NCCN1.Cl.Cl (stereo unspecified) , recorded Log Ki = -5.2

Adrenergic receptor alpha-1 (Rattus norvegicus, UniProt P15823+P23944+P43140) assay, compound `Cl.Cl.Fc1cccc2c1CCN(CC1=NCCN1)C2` , recorded Log Ki = -5.55

Adrenergic receptor alpha-1 (Rattus norvegicus, UniProt P15823+P23944+P43140) assay, compound COc1ccc(OC)c2c1CCN(CC1=NCCN1)C2C.Cl.Cl (stereo unspecified) , recorded Log Ki = -5.19

Adrenergic receptor alpha-1 (Rattus norvegicus, UniProt P15823+P23944+P43140) assay, compound `Cl.Cl.Clc1cccc2c1CN(CC1=NCCN1)C2` , recorded Log Ki = -6.05

Adrenergic receptor alpha-1 (Rattus norvegicus, UniProt P15823+P23944+P43140) assay, compound `Cl.Cl.Clc1ccc(Cl)c2c1CCN(CC1=NCCN1)C2` , recorded Log Ki = -5.5
